Test system: Fer (mouse)
assayName: phosphorylation enrichment, bacterial display (enrichment ratio); higher = better substrate or ligand; peptides without Tyr show the background;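 further: 11-residue human phosphosite peptides and single-mutation variants displayed on the E. coli surface, counted by deep sequencing, each peptide's frequency after selection divided by its frequency in the unselected input library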;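 further: frequency after pTyr selection over input frequency; kinase dosed for 20-30% of maximal phosphorylation in three min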
Label TRUE for high-side phosphorylation enrichment (at or above 0.6) and FALSE for low-side phosphorylation enrichment (below it).

Here's what some known entries look like.
> print(dat)
                       orderedresidues  classlabel
 1          NLDRFYQQVTK [SEC16A_Y1041]        TRUE
 2              VEDHYYEGGIG [TKT_Y564]        TRUE
 3      TLMNAYSSRCH [KIF11_Y231_S235C]       FALSE
 4  MGSFNYLGFPR [SPTLC2_Y178_A182P_YF]       FALSE
 5   MCDKEYFSVHN [MET_Y1234_Y1230C_YF]       FALSE
 6    GLAELYEYQKK [CKAP5_Y1854_K1857Q]        TRUE
 7        LNERHYGGLTD [PGAM2_Y92_G97D]        TRUE
 8              RFWPRYVKVGS [NOG_Y172]        TRUE
 9        TEALYYTDDPA [ADPRS_Y75_T79P]        TRUE
10      EYITRYIDSLK [PSMA7_Y110_A112D]       FALSE

QUERY: Does METKGYHSLPE [NR3C2_Y6] have a reported phosphorylation enrichment of at least 0.6?
RESULT: FALSE

QUERY: Does HQPGEYIFHAE [FLT3_Y416] have a reported phosphorylation enrichment of at least 0.6?
RESULT: TRUE

QUERY: Does MTRDIYRASYY [ALK_Y1278_A1274T] have a reported phosphorylation enrichment of at least 0.6?
RESULT: FALSE

###

System: c-Src
assayName: phosphorylation enrichment, bacterial display (enrichment ratio); higher = better substrate or ligand; peptides without Tyr show the background
quantityKind: phosphorylation enrichment
Please respond with just the number, no unit label.

Before answering, review these 5 worked examples.
> print(dat)
                     orderedresidues                quantitykind    val
1         LIDSSYLTRTA [GREB1L_Y1063]  phosphorylation enrichment  0.489
2  GHNDVYILEHV [GRIN2A_Y1423_S1425L]  phosphorylation enrichment   2.94
3          IKGIRYLHHRG [GUCY2D_Y656]  phosphorylation enrichment  0.439
4    YPPDGYSRHCE [CTNND1_Y213_Y217C]  phosphorylation enrichment  0.462
5           RTLSEYARPHV [RERE_Y1259]  phosphorylation enrichment  0.454

QUERY: Given the sequence PLGKDYRKAEG [MAP1A_Y1909] , write its reported phosphorylation enrichment.
RESULT: 0.456

QUERY: Given the sequence TEALYYTDDPA [ADPRS_Y75_T79P] , write its reported phosphorylation enrichment.
RESULT: 2.59

QUERY: Given the sequence SFPHEYGSQEG [RBM10_Y48_R46H_YF] , write its reported phosphorylation enrichment.
RESULT: 0.395

QUERY: Given the sequence SHSMRYFSTAV [HLA-C_Y31_D33S] , write its reported phosphorylation enrichment.
RESULT: 0.441

QUERY: Given the sequence AVSHRYDLGGL [QPRT_Y162_A158V] , write its reported phosphorylation enrichment.
RESULT: 0.385

QUERY: Given the sequence QDEPTYARSSK [PEAK1_Y616_H611Q] , write its reported phosphorylation enrichment.
RESULT: 0.661

QUERY: Given the sequence AKLDIYKRKVE [VWA3B_Y918_N916D] , write its reported phosphorylation enrichment.
RESULT: 0.37

QUERY: Given the sequence RTESQYQENRG [LRCH3_Y354_R350T] , write its reported phosphorylation enrichment.
RESULT: 0.557

QUERY: Given the sequence PESTLYRKFTT [NTRK1_Y701_I699T] , write its reported phosphorylation enrichment.
RESULT: 0.467

###

testedSystem: Fyn (UniProt P06241)
Sequence (P06241 whole entry, looked up): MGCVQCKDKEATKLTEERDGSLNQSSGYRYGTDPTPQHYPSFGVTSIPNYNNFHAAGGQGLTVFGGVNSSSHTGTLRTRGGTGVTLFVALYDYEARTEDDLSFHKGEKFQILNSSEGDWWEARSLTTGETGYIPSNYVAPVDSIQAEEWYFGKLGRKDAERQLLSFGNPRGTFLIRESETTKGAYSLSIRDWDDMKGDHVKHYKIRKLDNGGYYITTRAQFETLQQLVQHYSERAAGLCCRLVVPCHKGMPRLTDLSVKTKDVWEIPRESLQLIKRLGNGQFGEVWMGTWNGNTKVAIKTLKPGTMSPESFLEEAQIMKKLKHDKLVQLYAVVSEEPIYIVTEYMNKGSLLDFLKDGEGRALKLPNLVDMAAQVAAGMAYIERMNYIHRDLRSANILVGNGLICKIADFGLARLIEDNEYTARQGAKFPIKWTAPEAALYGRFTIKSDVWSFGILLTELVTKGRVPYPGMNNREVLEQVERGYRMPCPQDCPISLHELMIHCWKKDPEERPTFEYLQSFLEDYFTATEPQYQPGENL
assayName: phosphorylation enrichment, bacterial display (enrichment ratio); higher = better substrate or ligand; peptides without Tyr show the background
quantityKind: phosphorylation enrichment

Before answering, review these 3 worked examples.
> print(dat)
                   orderedresidues                quantitykind    val
1  RGLQVYHKRNA [LRP2_Y2010_R2012K]  phosphorylation enrichment  0.496
2         GEDEPYSEPYA [APBA1_Y183]  phosphorylation enrichment   0.55
3   YRTGHYLCNAC [GATA1_Y223_D218Y]  phosphorylation enrichment  0.383

QUERY: Given the sequence SSEFHYVGGFF [CTSC_Y347_YF] , write its reported phosphorylation enrichment.
RESULT: 0.516

QUERY: Given the sequence MEIHAYLKLLE [LMNA_Y376_R377L] , write its reported phosphorylation enrichment.
RESULT: 0.521

QUERY: Given the sequence VNKIFHPDFIV [LIG3_Y768_Y768H_YF] , write its reported phosphorylation enrichment.
RESULT: 0.447

QUERY: Given the sequence QNVADYMRCLM [RPL5_Y207_Y210C] , write its reported phosphorylation enrichment.
RESULT: 0.729

QUERY: Given the sequence GLAELYEYQKK [CKAP5_Y1854_K1857Q] , write its reported phosphorylation enrichment.
RESULT: 0.532

QUERY: Given the sequence SNNFIYTTLGV [FAM83B_Y639_K640T_YF] , write its reported phosphorylation enrichment.
RESULT: 7.76

###

Collected phosphorylation enrichment values appear next to each entry.
testedSystem: Jak2 (UniProt O60674)
Sequence (O60674 whole entry, looked up): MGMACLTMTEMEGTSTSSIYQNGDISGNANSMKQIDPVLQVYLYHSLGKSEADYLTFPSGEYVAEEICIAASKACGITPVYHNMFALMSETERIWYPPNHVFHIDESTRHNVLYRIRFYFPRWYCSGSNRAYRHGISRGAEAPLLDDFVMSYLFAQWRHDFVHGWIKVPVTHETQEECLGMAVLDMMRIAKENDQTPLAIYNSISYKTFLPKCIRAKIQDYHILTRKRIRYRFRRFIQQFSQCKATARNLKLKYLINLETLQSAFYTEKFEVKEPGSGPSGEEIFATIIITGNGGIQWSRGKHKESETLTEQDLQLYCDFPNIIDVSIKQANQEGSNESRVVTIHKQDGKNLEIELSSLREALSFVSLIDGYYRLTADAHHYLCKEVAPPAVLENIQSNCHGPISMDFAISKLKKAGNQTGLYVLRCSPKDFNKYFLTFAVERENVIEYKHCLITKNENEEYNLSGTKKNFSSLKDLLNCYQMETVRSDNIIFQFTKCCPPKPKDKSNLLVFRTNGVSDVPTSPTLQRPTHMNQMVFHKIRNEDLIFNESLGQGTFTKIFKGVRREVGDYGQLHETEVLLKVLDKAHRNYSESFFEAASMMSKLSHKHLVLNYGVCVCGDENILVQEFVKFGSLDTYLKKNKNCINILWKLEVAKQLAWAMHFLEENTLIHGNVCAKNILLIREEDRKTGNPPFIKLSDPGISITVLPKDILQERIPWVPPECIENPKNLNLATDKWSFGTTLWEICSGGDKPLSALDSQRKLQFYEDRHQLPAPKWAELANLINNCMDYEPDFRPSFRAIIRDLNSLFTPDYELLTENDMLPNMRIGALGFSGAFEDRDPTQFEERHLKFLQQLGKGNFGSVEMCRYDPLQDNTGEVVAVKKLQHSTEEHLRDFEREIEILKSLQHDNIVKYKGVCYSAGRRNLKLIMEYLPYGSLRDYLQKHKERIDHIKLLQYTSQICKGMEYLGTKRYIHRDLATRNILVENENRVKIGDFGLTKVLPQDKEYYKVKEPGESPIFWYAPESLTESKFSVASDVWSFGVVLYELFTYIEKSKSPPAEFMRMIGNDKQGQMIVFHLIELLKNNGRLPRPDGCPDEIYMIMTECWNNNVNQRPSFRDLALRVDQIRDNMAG
assayName: phosphorylation enrichment, bacterial display (enrichment ratio); higher = better substrate or ligand; peptides without Tyr show the background
Please respond with just the number, no unit label.

> print(dat)
                      orderedresidues           testedsystem    val
1       LKGQVYILVRE [ASS1_Y359_G362V]  Jak2 (UniProt O60674)   1.14
2        GLRSFYETSKM [MAGED2_Y449_YF]  Jak2 (UniProt O60674)  0.707
3  PTEAQYRFIFM [PTPN11_Y511_Q506P_YF]  Jak2 (UniProt O60674)   1.44
4      RASQEYHIVKK [PDZD2_Y557_S552R]  Jak2 (UniProt O60674)   1.06
5             LVGTPYWMAPE [PAK5_Y608]  Jak2 (UniProt O60674)   1.14
6    VNKGGYFSVNL [C3orf33_Y164_S160N]  Jak2 (UniProt O60674)   1.23

QUERY: Give Jak2 (UniProt O60674) phosphorylation enrichment for the following sequence: RAILDYIASKY [GSTA3_Y74_N73D]
RESULT: 0.718

QUERY: Give Jak2 (UniProt O60674) phosphorylation enrichment for the following sequence: SHSMRYFSTAV [HLA-C_Y31_D33S]
RESULT: 0.625

QUERY: Give Jak2 (UniProt O60674) phosphorylation enrichment for the following sequence: AGLEEYSAMRD [HRAS_Y64_Q61L]
RESULT: 0.837

QUERY: Give Jak2 (UniProt O60674) phosphorylation enrichment for the following sequence: SNNYIYKTLGV [FAM83B_Y639]
RESULT: 0.46

QUERY: Give Jak2 (UniProt O60674) phosphorylation enrichment for the following sequence: HKNNNYEPNLF [BRCA2_Y57]
RESULT: 0.477

QUERY: Give Jak2 (UniProt O60674) phosphorylation enrichment for the following sequence: FDDIAYIRKNL [PIK3CA_Y1021_T1025N]
RESULT: 0.494

QUERY: Give Jak2 (UniProt O60674) phosphorylation enrichment for the following sequence: SFHSSYSEIKD [DCLRE1C_Y322]
RESULT: 0.559

QUERY: Give Jak2 (UniProt O60674) phosphorylation enrichment for the following sequence: AQMAMYFWEMG [TRPM4_Y577]
RESULT: 1.37

###

testedSystem: Fyn (UniProt P06241)
assayName: phosphorylation enrichment, bacterial display (enrichment ratio); higher = better substrate or ligand; peptides without Tyr show the background
Collected phosphorylation enrichment values appear next to each entry.
Please respond with just the number, no unit label.

> print(dat)
                       orderedresidues          testedsystem    val
1     NSRYTCKLEVK [USH2A_Y3747_Y3747C]  Fyn (UniProt P06241)  0.407
2       VATRWYRSPEP [CDKL5_Y177_L182P]  Fyn (UniProt P06241)  0.525
3      GHEYIYVDRMQ [PDGFRB_Y581_P584R]  Fyn (UniProt P06241)   1.94
4  VTPVMYTFDEF [COL10A1_Y623_G618V_YF]  Fyn (UniProt P06241)  0.737
5        DYYDLYGGEKL [PTPN11_Y66_F71L]  Fyn (UniProt P06241)   5.27
6       VRQQDYKKVEE [HADHA_Y283_V282D]  Fyn (UniProt P06241)  0.417

QUERY: Given the sequence FKEIVYAVSSD [DCX_Y70_G67E] , write its reported phosphorylation enrichment.
RESULT: 3.23

QUERY: Given the sequence NYYDTCIKTCL [IQGAP2_Y1445_Y1445C] , write its reported phosphorylation enrichment.
RESULT: 1.52

QUERY: Given the sequence ADCRFYTFPQM [GAMT_Y223_A224T_YF] , write its reported phosphorylation enrichment.
RESULT: 0.811

QUERY: Given the sequence IFLADYRIMEG [ALOX12B_Y318_YF] , write its reported phosphorylation enrichment.
RESULT: 0.408

QUERY: Given the sequence GEETDYTPVWC [UROD_Y30] , write its reported phosphorylation enrichment.
RESULT: 0.535

QUERY: Given the sequence KEEEDYREENN [BMS1_Y651_K652R] , write its reported phosphorylation enrichment.
RESULT: 0.5

QUERY: Given the sequence TTPGPHRSIYF [MPG_Y71_Y71H] , write its reported phosphorylation enrichment.
RESULT: 0.359

QUERY: Given the sequence GGFNNYGFGSD [HNRNPH3_Y159_N163S_YF] , write its reported phosphorylation enrichment.
RESULT: 0.458

QUERY: Given the sequence NVVHEYSSELE [FGB_Y172_N170H] , write its reported phosphorylation enrichment.
RESULT: 0.436

QUERY: Given the sequence LARDMDDKEYY [MET_Y1230_Y1230D] , write its reported phosphorylation enrichment.
RESULT: 0.691

QUERY: Given the sequence SHSMRYFDTSV [HLA-C_Y31_A35S] , write its reported phosphorylation enrichment.
RESULT: 0.432

QUERY: Given the sequence QSSALYEDHYL [ASS1_Y83_R86H] , write its reported phosphorylation enrichment.
RESULT: 0.904

QUERY: Given the sequence KDKLPYLYDDP [GPX2_Y125_P126L] , write its reported phosphorylation enrichment.
RESULT: 0.522

QUERY: Given the sequence PGLSSYGVPGS [FLNB_Y1530_A1534G] , write its reported phosphorylation enrichment.
RESULT: 0.598

QUERY: Given the sequence LATINYPFEKG [NDUFS8_Y84_P79L] , write its reported phosphorylation enrichment.
RESULT: 0.421

QUERY: Given the sequence IFHENYNAGTY [CFI_Y421] , write its reported phosphorylation enrichment.
RESULT: 0.664

QUERY: Given the sequence SPRDTYSDRSG [CTPS1_Y567] , write its reported phosphorylation enrichment.
RESULT: 0.443

QUERY: Given the sequence YKPGFYNLKEK [LAMA1_Y490_C485Y] , write its reported phosphorylation enrichment.
RESULT: 0.421
